Quick record of Ki values for Coagulation factor X (Bos taurus).
Quantity measured: Ki

[[record]]
smiles_repr = "CC(C)c1cccc(-c2cc3cc(C(=N)N)ccc3[nH]2)c1O"
recorded_result = "1000 nM"

[[record]]
smiles_repr = "N=C(N)c1ccc2[nH]c(-c3cccc(C4(O)CCCCC4)[n+]3[O-])cc2c1"
recorded_result = "8200 nM"

[[record]]
smiles_repr = "N=C(N)c1ccc2[nH]c(-c3ccccc3O)nc2c1"
recorded_result = "14000 nM"

[[record]]
smiles_repr = "N=C(N)c1ccc2[nH]c(-c3cccc(C4(O)CCCCC4)n3)cc2c1"
recorded_result = "1400 nM"

[[record]]
smiles_repr = "N=C(N)c1ccc2[nH]c(-c3cccc(C4(F)CCCCC4)n3)cc2c1"
recorded_result = "700 nM"


====

Experiment: Stability in mouse liver microsomes assessed as compound remaining at 1 uM after 40 mins by LC-MS/MS analysis
Type: ADME
Settings: read-out: Stability
Quantity measured: remaining at 40 min, 1 µM

[[record]]
smiles_repr = "N=C(N)c1ccc2[nH]c(-c3cccc(C4(O)CCCCC4)n3)cc2c1"
recorded_result = "64%"

[[record]]
smiles_repr = "N=C(N)c1ccc2[nH]c(-c3cccc(N4CCCCC4)c3O)cc2c1"
recorded_result = "22%"

[[record]]
smiles_repr = "N=C(N)c1ccc2[nH]c(-c3cccc(N4CCCCC4)n3)cc2c1"
recorded_result = "60%"

[[record]]
smiles_repr = "N=C(N)c1ccc2[nH]c(-c3cccc(C4(O)CCCCC4)[n+]3[O-])cc2c1"
recorded_result = "99%"


====

Molecular target: Serine protease hepsin (Homo sapiens)
Sequence (P05981 1-162 limits assumed): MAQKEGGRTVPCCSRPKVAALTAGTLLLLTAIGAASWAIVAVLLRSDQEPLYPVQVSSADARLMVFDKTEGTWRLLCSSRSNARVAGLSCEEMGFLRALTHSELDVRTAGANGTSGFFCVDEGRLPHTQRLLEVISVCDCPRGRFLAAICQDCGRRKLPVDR
Sequence (P05981 163-417 limits assumed): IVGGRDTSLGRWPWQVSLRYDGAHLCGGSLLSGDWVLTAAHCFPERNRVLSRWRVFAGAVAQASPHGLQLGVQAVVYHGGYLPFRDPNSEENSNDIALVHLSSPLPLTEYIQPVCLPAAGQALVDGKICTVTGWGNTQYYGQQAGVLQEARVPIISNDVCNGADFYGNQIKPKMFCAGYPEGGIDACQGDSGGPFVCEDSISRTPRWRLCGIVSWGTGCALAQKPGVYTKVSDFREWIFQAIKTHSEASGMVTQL
Experiment: Inhibition of human recombinant hepsin by fluorescence based assay using 65 uM BOC-Gln-Arg-Arg -AMC as substrate
pKi: −log10 of the molar value.
Rule: pKi of 6 or more gives 1; anything lower gives 0.

[[record]]
smiles_repr = "N=C(N)c1ccc2[nH]c(-c3cccc(C4(O)CCCCC4)[n+]3[O-])cc2c1"
qualitative_label = 1

[[record]]
smiles_repr = "N=C(N)c1ccc2[nH]c(-c3ccccc3O)nc2c1"
qualitative_label = 0

[[record]]
smiles_repr = "N=C(N)c1ccc2[nH]c(-c3cccc(C4(F)CCCCC4)n3)cc2c1"
qualitative_label = 1

[[record]]
smiles_repr = "CC(C)c1cc(Cl)cc(-c2cc3cc(C(=N)N)ccc3[nH]2)c1O"
qualitative_label = 0

[[record]]
smiles_repr = "N=C(N)c1ccc2[nH]c(-c3cccc(N4CCCCC4)n3)cc2c1"
qualitative_label = 1

[[record]]
smiles_repr = "CC(C)c1cccc(-c2cc3cc(C(=N)N)ccc3[nH]2)c1O"
qualitative_label = 0

[[record]]
smiles_repr = "N=C(N)c1ccc2[nH]c(-c3cccc(C4(O)CCCCC4)n3)cc2c1"
qualitative_label = 1

[[record]]
smiles_repr = "N=C(N)c1ccc2[nH]c(-c3ccccc3O)cc2c1"
qualitative_label = 0

[[record]]
smiles_repr = "N=C(N)c1ccc2[nH]ccc2c1"
qualitative_label = 0


====

Tested on: PC-3
Test: Cytotoxicity against human PC3 cells at 10 uM after 72 hrs by calcein AM assay
Format: cell-based
Conditions: pc-3, 72 h
Quantity measured: Activity

[[record]]
smiles_repr = "N=C(N)c1ccc2[nH]c(-c3cccc(C4(O)CCCCC4)n3)cc2c1"
target = "PC-3"
recorded_result = "10%"

[[record]]
smiles_repr = "N=C(N)c1ccc2[nH]c(-c3cccc(C4(O)CCCCC4)[n+]3[O-])cc2c1"
target = "PC-3"
recorded_result = "8%"

[[record]]
smiles_repr = "N=C(N)c1ccc2[nH]c(-c3cccc(N4CCCCC4)n3)cc2c1"
target = "PC-3"
recorded_result = "10%"

[[record]]
smiles_repr = "N=C(N)c1ccc2[nH]c(-c3cccc(N4CCCCC4)c3O)cc2c1"
target = "PC-3"
recorded_result = "22%"

